The reported measurements were obtained from PubChem BioAssay (NCATS).

- test-protocol: BET inhibitor-based combinations targeting novel dependencies in MECOM-rearranged (r) AML: MV-4-11 cell line (AID 2202233); note: nearly all actives have a fitted effect of over 45% in size
- study-conditions: MV-4-11 AML viability, CellTiter-Glo luminescence, 48 h; series mostly up to 46 µM
Records with an inconclusive call do not appear. The source made the active and inactive calls. Calls come from the whole dose curve; as a rule, active = well fitted inhibition curve with a large enough effect; inconclusive = small, poorly fitted or top-dose-only effect; inactive = no such curve, though single readings can be large or run the other way.
Labels: 1 for active, -1 for inactive

INSERT INTO results (chemical_smiles, classification) VALUES
  ('CC1=NN(c2ccc(C(=O)O)cc2)C(=O)/C1=C/c1ccc(-c2cc(C)c(C)cc2[N+](=O)[O-])o1', -1),
  ('Cc1ccc(S(=O)(=O)Nc2cc(-c3ccc(C#N)s3)ccc2C)cc1', 1),
  ('Cc1ccc(-c2ncc(Cl)cc2-c2ccc(S(C)(=O)=O)cc2)cn1', -1),
  ('COc1ccc(S(=O)(=O)N(CCO)c2ccccc2CN(C)C/C=C/c2ccc(Cl)cc2)cc1', 1),
  ('Nc1nccc(-c2c(-c3ccc(F)cc3)ncn2C2CCCCC2)n1', 1);
